Tested on: ACHN
RUN DESCRIPTION: NCI tumour cell line growth inhibition, 48 h
Calls of active or inactive are those of the source. Rule as the data show it: active = GI50 up to about 1.1 µM and inactive = higher.
Mark one answer only. Choices: class 1 (active), class 0 (inactive)

Use the examples below as a reference point.
[
  {
    "COMPOUND": "CCc1n[nH]c(=O)n1N1C(=O)C2CC=CCC2C1=O (stereo unspecified)",
    "MEASURED ON": "ACHN",
    "ASSIGNED CATEGORY": "class 0"
  },
  {
    "COMPOUND": "O=c1ccc2[n+]([O-])c3ccc(O)cc3oc-2c1",
    "MEASURED ON": "ACHN",
    "ASSIGNED CATEGORY": "class 0"
  },
  {
    "COMPOUND": "CC(=O)c1nc(C#N)c(N)o1",
    "MEASURED ON": "ACHN",
    "ASSIGNED CATEGORY": "class 0"
  },
  {
    "COMPOUND": "COC12C=CC(CC1)C(C)(C)C2OS(C)(=O)=O (stereo unspecified)",
    "MEASURED ON": "ACHN",
    "ASSIGNED CATEGORY": "class 0"
  },
  {
    "COMPOUND": "O=c1[nH]c(=O)n(C2OC(CO)C(O)C2O)c2nc(-c3ccc(-c4ccccc4)cc3)cnc12 (stereo unspecified)",
    "MEASURED ON": "ACHN",
    "ASSIGNED CATEGORY": "class 0"
  }
]

Record request — test call for O=C1Oc2ccccc2C(=O)/C1=C/N1C(=O)/C(=C/c2ccc3c(c2)OCO3)SC1=S class 0

What do you get for O=C(O)[C@H]1NC[C@H]2C(Br)=NO[C@@H]12 ? class 0

What do you get for COc1ccc(/C=C2\SC(c3ccc(OC)cc3)N(NC(=O)Cc3ccccc3)C2=O)cc1 (stereo unspecified) ? class 0

What do you get for C1=C(c2ccccc2)CN(c2ccccc2)OC1 ? class 0

What do you get for COc1ccc(CC(C)N)cc1 (stereo unspecified) ? class 0

What do you get for CN(C)/C=C/c1c2c(nc3ccccc13)C(=O)c1ccccc1C2=O ? class 1

====

System: SK-MEL-2
RUN DESCRIPTION: NCI tumour cell line growth inhibition, 48 h
The source made the active and inactive calls. No stated cut-off is given here; in the data, active = GI50 up to about 1.1 µM and inactive = higher.
Mark one answer only. Choices: t (active), f (inactive)

Use the examples below as a reference point.
[
  {
    "COMPOUND": "CC1(C)Cc2nnsc2C2=C1C(=O)CCS2",
    "ASSIGNED CATEGORY": "f"
  },
  {
    "COMPOUND": "COC(=O)C(=O)C(C#N)c1ccc(CC#N)cc1 (stereo not given)",
    "ASSIGNED CATEGORY": "f"
  },
  {
    "COMPOUND": "COc1ccccc1/C=C1\\CCC(CN2CCOCC2)C1=O (stereo not given)",
    "ASSIGNED CATEGORY": "f"
  }
]

Record request — test call for COC1=CC(=O)c2c(c(O)c3oc4cc(OC)cc(C)c4c(=O)c3c2O)C1=O t

What do you get for O=C(/C(=N/Nc1cn[nH]c(=O)c1Cl)c1ccccc1)c1ccccc1 ? f

What do you get for Cc1nc2cc(Cl)c(N)cc2[nH]1 ? f

What do you get for CCN(CC)c1ccc(/C=c2\nc(-c3ccccc3)n3c2nc2ccccc23)cc1 ? f

What do you get for COC(=O)C1=C(C)NC(C)=C(C(=O)OC)C1c1ccc(NO)cc1 ? f

What do you get for CC(=O)OCC1OC(OC2CC3C(C)(C)C(OC(C)=O)CC[C@]3(C)C3CCC45CC4(CC[C@H]5C(C)CC(O)[C@@H](O)C(C)(C)O)[C@]23C)C(O)C(O)C1O (stereo not given in full) ? f

What do you get for Cc1cccc(N2C(=O)C3c4[nH]c5ccccc5c4C4CCC(C(C)(C)C)CC4C3C2=O)c1 (stereo not given) ? f

What do you get for COc1ccc(/C=C2\SC(c3ccc(OC)cc3)N(NC(=O)Cc3ccccc3)C2=O)cc1 (stereo not given) ? f

What do you get for COC(c1ccc(C(C)(C)C)cc1)(c1ccc(C(C)(C)C)cc1)c1ccc(C(C)(C)C)cc1 ? f

What do you get for Brc1ccc2[nH]cc(-c3csc(-c4c[nH]c5ccccc45)n3)c2c1 ? f

What do you get for CSc1ccc(C=C2N=C(c3ccccc3)N(c3cc(C(=O)c4ccccc4)ccc3N3C(=O)/C(=C/c4ccc(SC)cc4)N=C3c3ccccc3)C2=O)cc1 ? f

What do you get for CN(C)CCCn1c2ccccc2c2cnccc21 ? f

====

Tested on: SN12C
RUN DESCRIPTION: NCI tumour cell line growth inhibition, 48 h
Calls of active or inactive are those of the source. No stated cut-off is given here; in the data, active = GI50 up to about 1.1 µM and inactive = higher.
Mark one answer only. Choices: active, inactive

Use the examples below as a reference point.
[
  {
    "MOLECULE": "COc1cc(CC2CCc3nc(N)nc(N)c3C2)cc(OC)c1OC (stereo not drawn)",
    "MEASURED ON": "SN12C",
    "ASSIGNED CATEGORY": "inactive"
  },
  {
    "MOLECULE": "NC(=O)N/N=C(\\CCC(=O)N(Cc1ccccc1)Cc1ccccc1)CC(=O)c1ccc(F)cc1",
    "MEASURED ON": "SN12C",
    "ASSIGNED CATEGORY": "inactive"
  },
  {
    "MOLECULE": "COc1cc(/C=C/C(=O)O)ccc1OS(=O)(=O)O",
    "MEASURED ON": "SN12C",
    "ASSIGNED CATEGORY": "inactive"
  }
]

Record request — test call for CN1CCN(c2c(Cl)cc(Cl)c3[nH]c4ccccc4c(=O)c23)CC1 inactive

What do you get for COc1ccc(N2C(=O)C(=O)N(C)C2=O)c2ccccc12 ? inactive

What do you get for Nc1nc(N)c2cc(Sc3ccc4ccccc4c3)ccc2n1 ? active

What do you get for O=C(/C(=N/Nc1cn[nH]c(=O)c1Cl)c1ccccc1)c1ccccc1 ? inactive

What do you get for O=C(c1ccccc1Cl)n1oc2ccccc2c1=O ? inactive

====

Tested on: SK-MEL-28
RUN DESCRIPTION: NCI tumour cell line growth inhibition, 48 h
Active and inactive are the calls of the source. Cut-off read from the data, not from the text of the source: active = GI50 up to about 1.1 µM and inactive = higher.
REPORTED METRIC: GI50

Consider the reported GI50 for these molecules:
[
  {
    "MOLECULE": "CCOC(=O)c1cnc2[nH]ccn2c1=O",
    "GI50": "> 10 µM (inactive)"
  },
  {
    "MOLECULE": "O=C(c1ccccc1)C1(Br)S(=O)(=O)OCCOS1(=O)=O",
    "GI50": "> 100 µM (inactive)"
  },
  {
    "MOLECULE": "NCCCC[C@H](N)C(=O)Nc1ccc(-c2nc3ccccc3s2)cc1",
    "GI50": "19.7 µM (inactive)"
  },
  {
    "MOLECULE": "COc1ccc(/C=C2\\SC(c3ccc(OC)cc3)N(NC(=O)Cc3ccccc3)C2=O)cc1 (stereo not given)",
    "GI50": "> 100 µM (inactive)"
  }
]

Could you now look at the following molecule, please?
What GI50 appears in the records for this molecule with SK-MEL-28? COC(=O)C(C(=O)c1ccccc1)C(C(=O)C(=O)Nc1ccc(OC)cc1OC)C(=O)C(=O)c1ccc(C)cc1 (stereo not given) > 100 µM (inactive)

====

Tested on: CCRF-CEM
RUN DESCRIPTION: NCI tumour cell line growth inhibition, 48 h
Activity calls are given as the source filed them. Rule as the data show it: active = GI50 up to about 1.1 µM and inactive = higher.
Mark one answer only. Choices: active, inactive

[
  {
    "MOLECULE": "O=c1ccc2[n+]([O-])c3ccc(O)cc3oc-2c1",
    "MEASURED ON": "CCRF-CEM",
    "ASSIGNED CATEGORY": "inactive"
  },
  {
    "MOLECULE": "COc1ccc(/C=C2\\SC(c3ccc(OC)cc3)N(NC(=O)Cc3ccccc3)C2=O)cc1 (stereo not given)",
    "MEASURED ON": "CCRF-CEM",
    "ASSIGNED CATEGORY": "inactive"
  },
  {
    "MOLECULE": "Cc1ccc2c(c1)C(=O)C(C1OC(=O)c3ccccc31)C2 (stereo not given)",
    "MEASURED ON": "CCRF-CEM",
    "ASSIGNED CATEGORY": "inactive"
  },
  {
    "MOLECULE": "CN(C)C(=S)/N=c1\\ssc(=S)n1Cc1ccncc1",
    "MEASURED ON": "CCRF-CEM",
    "ASSIGNED CATEGORY": "inactive"
  },
  {
    "MOLECULE": "CC(=O)OCC1OC(n2cnc(C(N)=S)c2N)C(OC(C)=O)C1OC(C)=O (stereo not given)",
    "MEASURED ON": "CCRF-CEM",
    "ASSIGNED CATEGORY": "inactive"
  }
]

Record request — test call for CSc1ccc(C=C2N=C(c3ccccc3)N(c3cc(C(=O)c4ccccc4)ccc3N3C(=O)/C(=C/c4ccc(SC)cc4)N=C3c3ccccc3)C2=O)cc1 inactive

What do you get for CC1CC2C(=O)N(c3ccccc3)C(=O)C2c2c1c1ccccc1n2Cc1ccccc1 (stereo not given) ? inactive

What do you get for COc1cccc2cc(C(=O)Nc3ccccn3)c(=N)oc12 ? inactive

What do you get for CN(C)/C=C/c1c2c(nc3ccccc13)C(=O)c1ccccc1C2=O ? active

What do you get for Cc1ccsc1C(=S)Nc1ccc(Cl)c(C(=O)OC(C(C)C)C(C)C)c1 ? inactive
